target: Glutamate NMDA receptor; Grin1/Grin2a (Rattus norvegicus, UniProt P35439+Q00959); test: Agonist activity at rat GluN1/GluN2A NMDA receptor expressed in Xenopus oocytes measured after 4 days in presence of L-glutamte by two-electrode voltage-clamp recording assay; assay type: cell-based, Oocyte
Sequence (Q00959 whole entry, other chains not shown): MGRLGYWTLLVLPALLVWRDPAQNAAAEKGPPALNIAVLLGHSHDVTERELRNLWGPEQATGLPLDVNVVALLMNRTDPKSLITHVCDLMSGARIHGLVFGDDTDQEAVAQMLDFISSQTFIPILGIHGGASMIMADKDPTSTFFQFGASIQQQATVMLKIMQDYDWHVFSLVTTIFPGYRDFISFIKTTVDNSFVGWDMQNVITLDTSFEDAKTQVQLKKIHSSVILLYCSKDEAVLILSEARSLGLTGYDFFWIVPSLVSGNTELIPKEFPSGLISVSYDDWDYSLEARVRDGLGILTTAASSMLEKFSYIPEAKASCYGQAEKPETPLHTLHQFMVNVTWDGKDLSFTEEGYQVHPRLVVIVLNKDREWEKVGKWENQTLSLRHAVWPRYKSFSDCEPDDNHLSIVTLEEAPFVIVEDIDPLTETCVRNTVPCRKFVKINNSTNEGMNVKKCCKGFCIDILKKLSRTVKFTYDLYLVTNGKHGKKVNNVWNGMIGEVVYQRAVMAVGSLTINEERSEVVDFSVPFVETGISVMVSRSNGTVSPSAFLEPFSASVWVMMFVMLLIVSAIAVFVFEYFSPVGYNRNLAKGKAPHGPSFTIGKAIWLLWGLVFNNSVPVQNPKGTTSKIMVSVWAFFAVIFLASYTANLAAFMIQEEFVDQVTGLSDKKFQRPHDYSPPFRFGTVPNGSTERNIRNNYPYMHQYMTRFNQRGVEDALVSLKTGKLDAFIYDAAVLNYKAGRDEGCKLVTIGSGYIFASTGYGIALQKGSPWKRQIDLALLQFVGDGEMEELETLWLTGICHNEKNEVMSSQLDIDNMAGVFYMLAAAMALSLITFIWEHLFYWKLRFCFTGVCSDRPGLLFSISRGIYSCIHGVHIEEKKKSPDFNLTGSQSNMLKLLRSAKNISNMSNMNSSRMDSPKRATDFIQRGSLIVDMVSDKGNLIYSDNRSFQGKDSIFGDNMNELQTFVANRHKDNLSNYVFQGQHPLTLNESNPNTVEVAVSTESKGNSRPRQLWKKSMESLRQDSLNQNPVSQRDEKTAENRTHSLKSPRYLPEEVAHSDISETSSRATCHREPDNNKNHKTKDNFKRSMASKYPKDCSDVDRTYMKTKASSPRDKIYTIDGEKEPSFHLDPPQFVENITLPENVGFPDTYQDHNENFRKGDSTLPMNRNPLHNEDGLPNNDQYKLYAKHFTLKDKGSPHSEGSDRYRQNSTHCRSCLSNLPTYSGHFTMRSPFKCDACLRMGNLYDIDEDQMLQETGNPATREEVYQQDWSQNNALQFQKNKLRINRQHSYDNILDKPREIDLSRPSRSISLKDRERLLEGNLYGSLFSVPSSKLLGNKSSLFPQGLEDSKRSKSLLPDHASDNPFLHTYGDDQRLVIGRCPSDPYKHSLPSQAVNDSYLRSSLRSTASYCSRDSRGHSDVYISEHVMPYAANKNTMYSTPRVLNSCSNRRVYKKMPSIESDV
readout: pEC50
To interpret pEC50, take it as minus log10 of a concentration measured in moles per litre.

Examples with answers:
[
  {
    "sample.smiles": "N[C@H](CNC(=O)c1ccc(-c2ccccc2C(F)(F)F)o1)C(=O)O",
    "readout": "pEC50",
    "numeric.value": 6.89
  },
  {
    "sample.smiles": "N[C@H](CNC(=O)c1ccc(-c2ccccc2Cl)o1)C(=O)O",
    "readout": "pEC50",
    "numeric.value": 6.59
  },
  {
    "sample.smiles": "N[C@H](CNC(=O)c1ccc(-c2cccc(C(F)(F)F)c2)o1)C(=O)O",
    "readout": "pEC50",
    "numeric.value": 5.18
  },
  {
    "sample.smiles": "CCc1ccccc1-c1ccc(C(=O)NC[C@@H](N)C(=O)O)o1",
    "readout": "pEC50",
    "numeric.value": 7.03
  },
  {
    "sample.smiles": "N[C@H](CNC(=O)c1ccc(-c2ccc(Cl)cc2)o1)C(=O)O",
    "readout": "pEC50",
    "numeric.value": 5.37
  }
]

Challenge: Return reported pEC50; argument: "COCc1ccccc1-c1ccc(C(=O)NC[C@@H](N)C(=O)O)o1"
Response given: 5.51

Challenge: And for "CN(C)S(=O)(=O)c1ccccc1-c1ccc(C(=O)NC[C@@H](N)C(=O)O)o1" ?
Response given: 5.00

Challenge: And for "N[C@H](CNC(=O)c1ccc(-c2cccc3ccccc23)o1)C(=O)O" ?
Response given: 6.74

Challenge: And for "N[C@H](CNC(=O)c1ccc(-c2ccccc2Br)o1)C(=O)O" ?
Response given: 7.28

Challenge: And for "N[C@H](CNC(=O)c1ccc(-c2ccccc2)o1)C(=O)O" ?
Response given: 5.32

###

assay: Agonist activity at GluN1/GluN2A V783F mutant NMDA receptor (unknown origin) expressed in Xenopus oocytes measured after 4 days in presence of glycine by two-electrode voltage-clamp recording assay; type: cell-based; details: Homo sapiens, Oocyte, 96 h
readout: EC50 (nM)
Give your result in nM as a bare value.

Challenge: Return reported EC50; argument: "CCc1ccccc1-c1ccc(C(=O)NC[C@@H](N)C(=O)O)o1"
Response given: 410

###

Quick list: Rmax per entry.
target: Glutamate NMDA receptor; Grin1/Grin2c (Rattus norvegicus) (UniProt P35439+Q00961); test: Agonist activity at rat GluN1/GluN2C NMDA receptor expressed in Xenopus oocytes assessed as maximal relative efficacy measured after 4 days in presence of L-glutamte by two-electrode voltage-clamp recording assay relative to glycine; type: cell-based; details: Oocyte, filed as agonist, time 4.0 day
Give your result in % as a bare value.

Examples with answers:
[
  {
    "sample.smiles": "Cc1ccccc1-c1ccc(C(=O)NC[C@@H](N)C(=O)O)o1",
    "readout": "Rmax",
    "units.of.measure": "%",
    "numeric.value": 103
  },
  {
    "sample.smiles": "N[C@H](CNC(=O)c1ccc(-c2ccc(Cl)c(Cl)c2)o1)C(=O)O",
    "readout": "Rmax",
    "units.of.measure": "%",
    "numeric.value": 74
  },
  {
    "sample.smiles": "N[C@H](CNC(=O)c1ccc(-c2ccc(Cl)cc2)o1)C(=O)O",
    "readout": "Rmax",
    "units.of.measure": "%",
    "numeric.value": 44
  },
  {
    "sample.smiles": "N[C@H](CNC(=O)c1ccc(-c2ccccc2)o1)C(=O)O",
    "readout": "Rmax",
    "units.of.measure": "%",
    "numeric.value": 77
  }
]

Challenge: Return reported Rmax; argument: "N[C@H](CNC(=O)c1ccc(-c2cccc3ccccc23)o1)C(=O)O"
Response given: 53

Challenge: And for "CN(C)S(=O)(=O)c1ccccc1-c1ccc(C(=O)NC[C@@H](N)C(=O)O)o1" ?
Response given: 119

###

assay: Binding affinity at recombinant GluN1a/GluN2B NMDA receptor (unknown origin) expressed in Xenopus oocytes measured after 4 days in presence of L-glutamte by two-electrode voltage-clamp recording assay; format: cell-based, Homo sapiens; conditions: oocyte
readout: pKi
To interpret pKi, take it as minus log10 of a concentration measured in moles per litre.

[
  {
    "sample.smiles": "CCc1ccccc1-c1ccc(C(=O)NC[C@@H](N)C(=O)O)o1",
    "numeric.value": 7.00
  }
]

As a next step, examine the compound that follows.
Challenge: Return reported pKi; argument: "N[C@H](CNC(=O)c1ccc(-c2ccc(Cl)cc2[N+](=O)[O-])o1)C(=O)O"
Response given: 7.00

###

Quick list: Rmax per entry.
target: Glutamate NMDA receptor; Grin1/Grin2c (Rattus norvegicus) (UniProt P35439+Q00961); assay: Agonist activity at rat GluN1/GluN2C NMDA receptor expressed in Xenopus oocytes assessed as maximal relative efficacy measured after 4 days in presence of L-glutamte by two-electrode voltage-clamp recording assay relative to glycine; type: cell-based; conditions: Oocyte, time 4.0 day
Give your result in % as a bare value.

Examples with answers:
[
  {
    "sample.smiles": "N[C@H](CNC(=O)c1ccc(-c2ccc(Cl)cc2[N+](=O)[O-])o1)C(=O)O",
    "Rmax / %": 28
  },
  {
    "sample.smiles": "N[C@H](CNC(=O)c1ccc(-c2ccccc2C(F)(F)F)o1)C(=O)O",
    "Rmax / %": 36
  }
]

Challenge: Return reported Rmax; argument: "COc1ccc(-c2ccc(C(=O)NC[C@@H](N)C(=O)O)o2)cc1"
Response given: 26

Challenge: And for "N[C@H](CNC(=O)c1ccc(-c2ccccc2/C=C/c2cccc(F)c2)o1)C(=O)O" ?
Response given: 22

###

molecular target: Glutamate NMDA receptor; Grin1/Grin2c (Rattus norvegicus) (UniProt P35439+Q00961); test: Agonist activity at rat GluN1/GluN2C NMDA receptor expressed in Xenopus oocytes assessed as maximal relative efficacy measured after 4 days in presence of L-glutamte by two-electrode voltage-clamp recording assay relative to glycine; type: cell-based; settings: Oocyte, filed as agonist, time 4.0 day
Outcome label depends on Rmax relative to 70%: at/above gives met, below gives not met.

Consider the worked cases shown below.
[
  {
    "sample.smiles": "N[C@H](CO)C(=O)O",
    "label": "met"
  },
  {
    "sample.smiles": "N[C@H](CNC(=O)c1ccc(-c2ccccc2Br)o1)C(=O)O",
    "label": "not met"
  },
  {
    "sample.smiles": "COCc1ccccc1-c1ccc(C(=O)NC[C@@H](N)C(=O)O)o1",
    "label": "met"
  }
]

Now examine the next entry.
Challenge: # bool: Rmax of "N[C@H](CNC(=O)c1ccc(-c2ccccc2OCc2ccccc2)o1)C(=O)O" >= 70%
Response given: met

###

target: Ionotropic glutamate receptor NMDA 1/2D (Rattus norvegicus, UniProt P35439+Q62645); assay: Agonist activity at rat GluN1/GluN2D NMDA receptor expressed in Xenopus oocytes measured after 4 days in presence of L-glutamte by two-electrode voltage-clamp recording assay
Sequence (Q62645 whole entry, other chains not shown): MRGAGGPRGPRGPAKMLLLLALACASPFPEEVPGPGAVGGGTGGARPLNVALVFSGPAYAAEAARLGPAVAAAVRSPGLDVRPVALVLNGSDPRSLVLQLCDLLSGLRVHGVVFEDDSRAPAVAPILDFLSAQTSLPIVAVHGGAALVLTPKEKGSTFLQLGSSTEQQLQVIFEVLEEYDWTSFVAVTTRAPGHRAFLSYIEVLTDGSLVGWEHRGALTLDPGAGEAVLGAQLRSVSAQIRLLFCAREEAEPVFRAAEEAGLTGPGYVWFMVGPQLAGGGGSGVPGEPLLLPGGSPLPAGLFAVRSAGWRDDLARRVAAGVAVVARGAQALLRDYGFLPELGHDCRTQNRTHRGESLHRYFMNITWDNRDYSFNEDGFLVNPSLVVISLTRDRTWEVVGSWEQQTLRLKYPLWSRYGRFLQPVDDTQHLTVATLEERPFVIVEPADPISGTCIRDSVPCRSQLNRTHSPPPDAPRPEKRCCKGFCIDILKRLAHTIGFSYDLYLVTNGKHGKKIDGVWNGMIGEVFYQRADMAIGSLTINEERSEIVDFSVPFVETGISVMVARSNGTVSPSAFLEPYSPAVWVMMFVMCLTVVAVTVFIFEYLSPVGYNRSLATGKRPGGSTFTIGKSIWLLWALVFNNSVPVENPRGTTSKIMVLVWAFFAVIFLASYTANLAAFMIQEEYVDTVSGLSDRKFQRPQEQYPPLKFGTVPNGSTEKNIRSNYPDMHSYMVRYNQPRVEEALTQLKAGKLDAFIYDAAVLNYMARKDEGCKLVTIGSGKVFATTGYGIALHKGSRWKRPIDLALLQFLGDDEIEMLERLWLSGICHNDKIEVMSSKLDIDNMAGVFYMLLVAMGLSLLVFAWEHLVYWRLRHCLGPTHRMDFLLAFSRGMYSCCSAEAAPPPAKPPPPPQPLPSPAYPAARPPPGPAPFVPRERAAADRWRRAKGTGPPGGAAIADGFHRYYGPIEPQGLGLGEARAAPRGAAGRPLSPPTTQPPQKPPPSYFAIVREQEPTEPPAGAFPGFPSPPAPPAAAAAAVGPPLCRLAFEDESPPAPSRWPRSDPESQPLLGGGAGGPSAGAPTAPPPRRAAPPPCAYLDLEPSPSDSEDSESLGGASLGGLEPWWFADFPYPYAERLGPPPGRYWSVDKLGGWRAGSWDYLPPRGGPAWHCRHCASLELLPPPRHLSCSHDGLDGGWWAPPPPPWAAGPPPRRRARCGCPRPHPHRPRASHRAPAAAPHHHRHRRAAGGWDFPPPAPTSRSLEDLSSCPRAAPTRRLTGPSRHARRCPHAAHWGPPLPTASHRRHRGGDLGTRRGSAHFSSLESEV
readout: EC50 (µM)
Give your result in µM as a bare value.

Examples with answers:
[
  {
    "sample.smiles": "N[C@H](CNC(=O)c1ccc(-c2cccc(Cl)c2)o1)C(=O)O",
    "numeric.value": 5
  },
  {
    "sample.smiles": "N[C@H](CNC(=O)c1ccc(-c2cccc3ccccc23)o1)C(=O)O",
    "numeric.value": 0.23
  },
  {
    "sample.smiles": "N[C@H](CNC(=O)c1ccc(-c2ccc(Cl)c(Cl)c2)o1)C(=O)O",
    "numeric.value": 31
  },
  {
    "sample.smiles": "COCc1ccccc1-c1ccc(C(=O)NC[C@@H](N)C(=O)O)o1",
    "numeric.value": 3.2
  },
  {
    "sample.smiles": "N[C@H](CNC(=O)c1ccc(-c2cccc(C(F)(F)F)c2)o1)C(=O)O",
    "numeric.value": 7.7
  }
]

Challenge: Tell me reported EC50 for "N[C@H](CNC(=O)c1ccc(-c2ccccc2)o1)C(=O)O" , tested with Ionotropic glutamate receptor NMDA 1/2D (Rattus norvegicus, UniProt P35439+Q62645).
Response given: 4.3

Challenge: And for "N[C@H](CNC(=O)c1ccc(-c2ccccc2Cl)o1)C(=O)O" ?
Response given: 0.27

Challenge: And for "Cc1ccccc1-c1ccc(C(=O)NC[C@@H](N)C(=O)O)o1" ?
Response given: 0.26

Challenge: And for "N[C@H](CNC(=O)c1ccc(-c2ccccc2Br)o1)C(=O)O" ?
Response given: 0.08

Challenge: And for "CCc1ccccc1-c1ccc(C(=O)NC[C@@H](N)C(=O)O)o1" ?
Response given: 0.15

Origin of the recorded values: ChEMBL document CHEMBL5038630
